Value source: PubChem BioAssay AID1721

- SYSTEM TESTED: Pyruvate kinase (Leishmania mexicana) (UniProt Q27686)
- Sequence (Q27686 whole entry, looked up): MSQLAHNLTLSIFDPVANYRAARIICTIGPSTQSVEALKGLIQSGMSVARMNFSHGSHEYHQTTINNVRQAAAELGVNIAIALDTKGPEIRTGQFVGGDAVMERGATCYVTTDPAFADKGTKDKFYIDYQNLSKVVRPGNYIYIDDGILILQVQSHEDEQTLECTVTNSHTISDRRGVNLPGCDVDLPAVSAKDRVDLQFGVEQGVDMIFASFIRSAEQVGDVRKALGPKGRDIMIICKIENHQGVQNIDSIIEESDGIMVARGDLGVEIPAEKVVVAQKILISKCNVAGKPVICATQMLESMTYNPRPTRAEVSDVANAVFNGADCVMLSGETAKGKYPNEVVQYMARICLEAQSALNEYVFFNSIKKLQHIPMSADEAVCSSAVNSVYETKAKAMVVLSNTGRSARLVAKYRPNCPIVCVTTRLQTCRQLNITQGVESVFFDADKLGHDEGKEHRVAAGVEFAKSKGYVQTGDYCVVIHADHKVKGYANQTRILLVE
- METHOD: qHTS Assay for Inhibitors of Leishmania Mexicana Pyruvate Kinase (LmPK)
- CONDITION DESCRIPTION: purified LmPK, Kinase-Glo ATP luminescence, 1 h; series mostly up to 57.5 µM
Screen size: about 290,000 compounds; about 1,100 (0.38%) were called active. The call rests on the fitted dose curve; in most records, active means well fitted inhibition curve with a large enough effect; inconclusive means small, poorly fitted or top-dose-only effect, or another doubt; inactive means no such curve, though single readings can be large or run the other way. The sample holds actives, similar compounds and a random draw of the others, so the mix is not that of the screen.
Outcomes: TRUE = active, FALSE = inactive

COMPOUND: COc1ccc(-c2nc(-c3ccccc3)no2)c(OC)c1
CATEGORY LABEL: TRUE
//
COMPOUND: O=C1CSC(=S)N1/N=C/c1ccc(O)c([N+](=O)[O-])c1
CATEGORY LABEL: TRUE
//
COMPOUND: CCOc1ccc(N/C=C/C(=O)c2ccccc2)cc1
CATEGORY LABEL: FALSE
//
COMPOUND: Cc1ccc(-c2nc3ccccc3[nH]2)cc1N
CATEGORY LABEL: TRUE
//
COMPOUND: CCn1c(CSCc2c(Cl)cccc2Cl)n[nH]c1=S
CATEGORY LABEL: TRUE
//
COMPOUND: COc1ccc(-c2ccc(OC(=O)NC3CCS(=O)(=O)C3)cc2)cc1 (stereo not drawn)
CATEGORY LABEL: FALSE
//
COMPOUND: S=c1[nH]nc(-c2cc(-c3ccsc3)n[nH]2)n1-c1ccccc1
CATEGORY LABEL: TRUE
//
COMPOUND: O=C(O)C1CCCN1C1=NS(=O)(=O)c2ccccc21 (stereo not drawn)
CATEGORY LABEL: FALSE
//
COMPOUND: CCOC(=O)C1CCN(C(=O)C2CCCN(S(=O)(=O)c3ccc(OC)c(Cl)c3)C2)CC1 (stereo not drawn)
CATEGORY LABEL: FALSE
//
COMPOUND: O=C(NCCCNC(=O)c1ccccc1Cl)c1cnccn1
CATEGORY LABEL: FALSE
//
COMPOUND: Cc1cc(C(=O)N/N=C/c2ccc(O)c([N+](=O)[O-])c2)c(C)n1-c1ccc(F)cc1
CATEGORY LABEL: FALSE
//
COMPOUND: O=C(NCc1ccccc1)C1CCN(C(=O)Cc2ccccc2)CC1
CATEGORY LABEL: FALSE
//
COMPOUND: COc1ccc(C(=O)/C=C/Nc2ccccn2)cc1
CATEGORY LABEL: TRUE
